Ref: paper PMC5554537

# Assay summary: in vivo
# Particulars: female, NIH-III nude, mouse, plasma, ip, T1/2, co-administered with SN30000 1.86 mg/kg i.p.
Measure name: half-life

>>> observed_measurement("OC[C@@H](O)[C@@H](O)[C@H](O)[C@H](O)CO [Mannitol, mannitol]")
"14.1 min"

====

# Assay summary: in vivo
# Particulars: NIH-III, mouse, plasma, ip, 186 mg/kg, Terminal T1/2, i.p. SN30000 186 mg/kg, non-tumour-bearing mice
Measure name: half-life (min)

>>> observed_measurement("c1c2c(cc3nc(CCCN4CCOCC4)nnc13)CCC2")
42.4

====

# Particulars: i.p. SN30000 186 mg/kg; HT29 tumour, tumour-bearing mice
Catalogue of Cmax readings, one per entry.
Measure name: Cmax (µmol/kg)

>>> observed_measurement("c1c2c(cc3nc(CCCN4CCOCC4)nnc13)CCC2")
15.5
>>> observed_measurement("O=C(O)CCc1nc2cc3c(cc2[n+]([O-])n1)CCC3")
17.6
>>> observed_measurement("[O-][n+]1nc(CCCN2CCOCC2)nc2cc3c(cc21)CCC3")
46.0
>>> observed_measurement("[O-][n+]1nc(CCCN2CCOCC2)[n+]([O-])c2cc3c(cc21)CCC3")
69.9
